The measurements presented in this section are drawn from PubChem BioAssay.

# assay_method_text: inhibitors of TNFa-induced NFkB p65 translocation, primary screen, imaging, HUVEC, MLSMR starter and 10KST1 sets (AID 438);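 note: compound added about 3h40 before a 20 min TNFalpha stimulation; signal is the nuclear over cytoplasmic p65 intensity ratio per well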
# settings: HUVEC TNFa-induced p65 nuclear translocation; at 2 µM, 0% TNFa-plus-vehicle, 100% no-TNFa wells
The source made the active and inactive calls.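 Rule for the calls: active = inhibition above 20% together with a positive visual image hit; inconclusive = visual image hit but inhibition not above 20%; inactive = no visual image hit.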
One label from this list, please: T for active, F for inactive

Please indicate how the test categorized COc1ccccc1NC(=O)N1CCN(c2cccc(C(F)(F)F)c2)CC1 .
F

Please indicate how the test categorized Cc1cc(NC(=O)Cc2c(F)cccc2Cl)no1 .
F

Please indicate how the test categorized O=C(NC(=O)c1ccc(Cl)cc1)Nc1cc(N2CCCCC2)ncn1 .
F

Please indicate how the test categorized Cc1ccc(S(=O)(=O)C2(C(=O)Nc3cccnc3)CC2)cc1 .
F

Please indicate how the test categorized CCOC(=O)c1ccc(NC(=O)CSc2ncccn2)cc1 .
F

Please indicate how the test categorized O=C(NCCc1ccccc1)C1CCCN(S(=O)(=O)c2cccs2)C1 (stereo unspecified) .
F

Please indicate how the test categorized COc1ccccc1-n1c(SCC(=O)Nc2ccc3c(c2)OCO3)nc2c(c1=O)SCC2 .
F

Please indicate how the test categorized CCOC(=O)c1ccc(-n2c(C)nc3c(cnn3-c3ccccc3C)c2=O)cc1 .
F

Please indicate how the test categorized CC(=O)c1c(OC(=O)c2ccco2)c2ccccc2n1C .
F

Please indicate how the test categorized Cc1nnc(SCc2cccc(Oc3ccccc3)c2)n1N .
F

Please indicate how the test categorized CC(=O)c1cc2c(cc1NC(=O)CN1CCN(C(=O)c3ccco3)CC1)OCO2 .
F

Please indicate how the test categorized CCn1cc(C(=O)NCc2ccccc2OC)c(=O)c2cc(S(=O)(=O)N(C)C)ccc21 .
F

Please indicate how the test categorized CCNc1ccc(S(=O)(=O)C(F)(F)F)cc1NC(=O)C12CCC(CC1)C2 .
F

Please indicate how the test categorized CC1(C)Cc2c(sc3c2c(=N)n(Cc2ccco2)c(=O)n3Cc2ccccc2)CO1 .
F

Please indicate how the test categorized CN=C(C)C1=C(O)C(C(=O)OC)C(C)(C)CC1=O (stereo unspecified) .
F

Please indicate how the test categorized Cc1cc(C)n(C(C)n2nc(C)cc2C)n1 .
F

Please indicate how the test categorized CC(C)CNS(=O)(=O)c1ccc(CCC(=O)NCc2ccco2)cc1 .
T

Please indicate how the test categorized CC(=O)Nc1ccc(OC(=O)c2cccnc2)cc1 .
F

Please indicate how the test categorized Cc1cccc(C)c1NC(=O)N1CCN(C2CCCCC2)CC1 .
F

Please indicate how the test categorized CC(C)(C)NC(=O)CN(Cc1cccs1)C(=O)c1csnn1 .
F

Please indicate how the test categorized Cc1ccc(S(=O)(=O)N2CCOCC2)cc1C(=O)Nc1ccccn1 .
F

Please indicate how the test categorized O=C(Nc1nc(-c2ccccc2)cs1)C1CCCCN1S(=O)(=O)c1ccccc1 (stereo unspecified) .
F

Please indicate how the test categorized CCSc1nc2ccccc2n1CCC(=O)O .
F

Please indicate how the test categorized COc1ccc(NC(C)=O)cc1NC(=O)CN1CCN(c2ccccn2)CC1 .
F

Please indicate how the test categorized O=C1c2ccccc2C(=O)N1CCN1CCCCC1 .
F

Please indicate how the test categorized CC(C)c1nc(N2CCN(C(=O)c3ccco3)CC2)c2c3c(sc2n1)CCCC3 .
F

Please indicate how the test categorized O=C(Nc1c(-c2ccccc2)nc2ccccn12)c1ccco1 .
F

Please indicate how the test categorized Cc1c(C(=O)Nc2nnc(C(F)(F)F)s2)oc2ccccc12 .
F

Please indicate how the test categorized Cc1ccc(-c2[nH]nc3c2C(c2ccoc2)C(C#N)=C(N)O3)cc1C (stereo unspecified) .
F

Please indicate how the test categorized COc1ccc2c(c1)CCc1c(C(=O)NCc3cccnc3)noc1-2 .
F

Please indicate how the test categorized Cc1cc(C)c(NC(=O)CSc2nc3c(c(=O)n2C)SC(C)C3)c(C)c1 (stereo unspecified) .
F

Please indicate how the test categorized Cc1ccc(Cn2ccc(NC(=O)c3noc4c3CCCC4)n2)cc1 .
F

Please indicate how the test categorized COc1ccccc1NC(=O)NC(N)=O .
F

Please indicate how the test categorized O=C(CS(=O)(=O)Cc1ccccc1)N1CCc2ccccc2C1 .
F

Please indicate how the test categorized O=C(CN1CCN(c2nc(-c3ccccc3)cs2)CC1)Nc1ccc2c(c1)OCO2 .
F

Please indicate how the test categorized O=C(CN1C(=O)c2cccc3cccc1c23)N1CCN(c2ccccc2)CC1 .
F

Please indicate how the test categorized CN1CCN(C(=O)C2(NC(=O)Nc3cccc(F)c3)CCCCC2)CC1 .
F

Please indicate how the test categorized CCn1cc(SCC(=O)NCC2CCCO2)c2ccccc21 (stereo unspecified) .
F

Please indicate how the test categorized O=C(NCC(=O)N(c1cccnc1)C(C(=O)NC1CCCCC1)c1cccnc1)c1ccco1 (stereo unspecified) .
F

Please indicate how the test categorized CC1CCc2nn(CC(=O)NCc3ccc(F)cc3)cc2C1 (stereo unspecified) .
F

Please indicate how the test categorized O=C(C1CCCO1)N1CCN(C(c2ccccc2)c2ccccc2)CC1 (stereo unspecified) .
F

Please indicate how the test categorized CC(Oc1ccccc1)C(=O)Nc1ccc(S(=O)(=O)NCC2CCCO2)cc1 (stereo unspecified) .
F

Please indicate how the test categorized O=C(O)CSC1CC(=O)N(c2ccc(Cl)c(Cl)c2)C1=O (stereo unspecified) .
F

Please indicate how the test categorized COC(=O)c1sc(S(=O)(=O)N2CCN(c3ccccc3)CC2)c(C(=O)OC)c1C .
F

Please indicate how the test categorized CCn1ncc(C2=NOC(C(=O)NCc3ccccc3)C2)c1C (stereo unspecified) .
F

Please indicate how the test categorized COc1oc(-c2ccccc2)nc1C(F)(F)F .
F
